- testedTarget: T1, hVISTA-Fc (R&D systems. Cat. No. 7126-B7) (human, UniProt Q9H7M9 33-194)
- T1 construct: Bought antigen; also called human VISTA-Fc; VISTA-FC Human
- T1 sequence: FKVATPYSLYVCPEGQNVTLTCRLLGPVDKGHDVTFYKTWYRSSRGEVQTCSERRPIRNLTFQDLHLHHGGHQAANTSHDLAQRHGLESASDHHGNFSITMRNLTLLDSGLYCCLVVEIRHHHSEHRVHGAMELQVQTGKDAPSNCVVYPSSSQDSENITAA
- protocolNotes: dissociation rate constant of scFv in the screening of optimised clones; antigen not named
Hi there, I'd appreciate the recorded koff for every entry that follows.
Give bare numbers, in s⁻¹.

// known answers, use as guide
{"columns": ["binder", "koff [s⁻¹]"],
 "data": [
  ["Anti VISTA_V3_1 (scFv phage clone) (scFv, V domains shown, Optimised 1B8 variant that retains the 1B8 heavy-chain variable region, measured as scFv) VH: QMQLVQSGAEVKKPGSSVKVSCKASGGSSSNYAISWVRQAPGQGLEWMGGIIPIFGTTSYAQKFQGRVTITADGSMSTAYMELSSLRSEDTAVYYCAKGAIEPWPFYFDNWGQGTLVTVSS VL: QLVLTQPRSVSGSPGQSVTISCTGTNSDVGAYNYLSWYQQLPGRAPKVIIYDVNKRPSGVPDRFSGSRSGKTASLTISGLQAEDEADYYCAAWDDSLYGLVFGGGTKLTVLG", 0.000487],
  ["Anti VISTA_V3_3 (scFv phage clone) (scFv, V domains shown, Optimised 1B8 variant that retains the 1B8 heavy-chain variable region, measured as scFv) VH: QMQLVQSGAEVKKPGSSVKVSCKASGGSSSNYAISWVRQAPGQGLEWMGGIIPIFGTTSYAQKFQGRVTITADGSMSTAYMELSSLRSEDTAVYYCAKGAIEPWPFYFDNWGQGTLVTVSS VL: QLVLTQPRSVSGSPGQSVTISCTGTNSDVGAYNYLSWYQQLPGRAPKVIIYDVNKRPSGVPDRFSGSRSGKTASLTISGLQAEDEADYYCAAWDDSLNVLVFGGGTKLTVLG", 0.00127]
]}

In the following, a different binder is considered.
So for Anti VISTA_V3_4 (scFv phage clone) (scFv, V domains shown, Optimised 1B8 variant that retains the 1B8 heavy-chain variable region, measured as scFv) VH: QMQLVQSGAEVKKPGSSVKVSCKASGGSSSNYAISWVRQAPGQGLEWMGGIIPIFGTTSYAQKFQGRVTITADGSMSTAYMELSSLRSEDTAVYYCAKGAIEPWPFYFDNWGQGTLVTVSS VL: QLVLTQPRSVSGSPGQSVTISCTGTNSDVGAYNYLSWYQQLPGRAPKVIIYDVNKRPSGVPDRFSGSRSGKTASLTISGLQAEDEADYYCAAWDDNSDFHVFGGGTKLTVLG , the logged koff turned out to be 0.00222

From: patent US20200407449A1
